Where do the numbers come from? From patent US20210246200A1.

biological target: T1, Proleukin® (aldesleukin) (human, UniProt P60568 21-153, limits assumed); assay: ELISA, coated Proleukin, serially diluted supernatant
T1 construct: Variant of human wt IL-2 with C145S (C125S on mature IL-2); also called IL-2 (Proleukin®); human IL-2 (Proleukin)
T1 sequence (P60568 other isoform, or with tags, fused parts or gaps limits assumed): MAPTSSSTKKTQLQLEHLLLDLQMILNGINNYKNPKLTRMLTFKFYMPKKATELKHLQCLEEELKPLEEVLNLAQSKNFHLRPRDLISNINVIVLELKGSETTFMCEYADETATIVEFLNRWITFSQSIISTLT
MEASURE: pEC50
Value format note: pEC50 is -log10 of concentration (mol/L); just state the number.

Query: # input binder: Antibody No: 8 (antibody, human IgG1, kappa, N297A, V domains shown, VK A50S; also called 108923) VH: EVQLVQSGAEVKKPGESLKISCKGSGYAFTNYLIEWVRQMPGKGLEWMGVINPGSGGTNYNEKFKGQVTISADKSISTAYLQWSSLKASDTAMYYCARWRGEGYYAYYDVWGQGTTVTVSS VL: AIRLTQSPSSFSASTGDRVTITCKASQSVDYQGDSYMNWYQQKPGKAPKLLIYSASNLESGVPSRFSGSGSGTDFTLTISSLQSEDFATYYCQQSNEDPYTFGGGTKVEIKR ; wanted: its pEC50
Response: 9.62

Query: # input binder: Antibody No: 21 (antibody, human IgG1, kappa, N297A, V domains shown, VK WT; HEK293F supernatant) VH: EVQLVQSGAEVKKPGESLKISCKGSGYAFSNYLIEWVRQMPGKGLEWMGVINPGSGGTNYNEKFKGQVTISADKSISTAYLQWSSLKASDTAMYYCARWRGEGYYAYYDVWGQGTTVTVSS VL: AIRLTQSPSSFSASTGDRVTITCKASQSVDYQGDSYMNWYQQKPGKAPKLLIYAASNLESGVPSRFSGSGSGTDFTLTISSLQSEDFATYYCQQSNEDPYTFGGGTKVEIKR ; wanted: its pEC50
Response: 9.19

Query: # input binder: Antibody No: 2 (antibody, human IgG1, kappa, N297A, V domains shown, VH WT; VK M33L; HEK293F supernatant) VH: EVQLVQSGAEVKKPGESLKISCKGSGYAFTNYLIEWVRQMPGKGLEWMGVINPGSGGTNYNEKFKGQVTISADKSISTAYLQWSSLKASDTAMYYCARWRGEGYYAYFDVWGQGTTVTVSS VL: AIRLTQSPSSFSASTGDRVTITCKASQSVDYQGDSYLNWYQQKPGKAPKLLIYAASNLESGVPSRFSGSGSGTDFTLTISSLQSEDFATYYCQQSNEDPYTFGGGTKVEIKR ; wanted: its pEC50
Response: 9.10
